# System: RPMI-8226 leukemia
# ASSAY_INFO: NCI tumour cell line growth inhibition, 48 h
ATTRIBUTE_MEASURED: TGI

| COMPOUND | RESULT_VALUE |
| --- | --- |
| O=C(NOCCO)c1cc(CN2OCCCC2=O)c(F)c(F)c1Nc1ccc(I)cc1F | > 84.4 µM |
| CCOC(=O)CCC(NC(=O)c1ccc(Nc2nc3ccccc3nc2C(=O)OCC)cc1)C(=O)OCC (stereo not drawn) | > 100 µM |
| CC(=O)[C-](C(C)=O)c1ccccc1.CC(=O)[C-](C(C)=O)c1ccccc1.CC(=O)[C-](C(C)=O)c1ccccc1.[Cl-].[Zr+4] | > 100 µM |
| CCOC(=O)C(C)N1C(=O)c2ccccc2S1(=O)=O (stereo not drawn) | > 100 µM |
| O=C1CC(c2ccccc2)S(=O)c2ccccc2N1 (stereo not drawn) | > 100 µM |
| COC(=O)C(C(=O)C(N)=O)c1csc(-n2nc(-c3ccccc3)cc2-c2ccccc2)n1 (stereo not drawn) | > 31.6 µM |
| C[C@H](CCC(=O)NCC(=O)O)[C@H]1CC[C@H]2[C@@H]3[C@H](O)C[C@@H]4C[C@H](O)CC[C@]4(C)[C@H]3CC[C@]12C | > 100 µM |
| Cc1ccc(-c2n[nH]c(=O)c3noc(-c4ccc(C)cc4)c23)cc1 | > 100 µM |
| COC1CC(OC2C(C)OC(OC3C(C)OC(OC4C(C)OC(O[C@H]5CC[C@@]6(C)C(=CC[C@]7(O)[C@@H]6C[C@@H](O)[C@@]6(C)[C@]7(O)CC[C@@]6(O)C(C)=O)C5)CC4OC)CC3OC)CC2OC)OC(C)C1O (stereo partly drawn) | > 12.5 µM |
| CC/C(=C\c1ccc(OC)cc1)c1ccc(OC)cc1 | > 100 µM |
| CC(=O)Nc1ccc(-c2nnc(SCC(=O)Nc3ccc(Cl)cc3)o2)cc1 | > 100 µM |
| CC(C)c1ccc(/C=C2\CSCC3=C2N=C2SCC(=O)N2C3c2ccc(C(C)C)cc2)cc1 (stereo not drawn) | > 100 µM |
| Nc1ccn(C2OC(C(OC3OC(CO)C(O)C(N)C3O)C(O)C(O)C(O)C(O)CO)C(N)C(O)C2O)c(=O)n1 (stereo not drawn) | > 100 µM |
| CC(=O)c1sc2[n+](c1C)C(=O)/C(=C\c1ccccc1Cl)S2 | 49.3 µM |
| C#CCOCn1cnc2ncnc(N)c21 | > 100 µM |
| C=C1C(=O)OC2C3OC(C)(CCC(O)C3COC(C)=O)CC(OC(=O)/C(=C/C)COC(C)=O)C12 (stereo not drawn) | 0.339 µM |
| CCOC(=O)C1=C(C)N(Cc2ccccc2)C2(O)C=CC(=O)C3=C(O)c4ccccc4C(=O)C312 (stereo not drawn) | 31.2 µM |
| O=C1/C(=C\c2ccccc2)C2OCC=C3CN4CCC56c7ccccc7N1C5C2C3CC46 (stereo not drawn) | > 100 µM |

###

# Lookup of reported TGI keyed by entry
# Tested on: HOP-62 NSCLC
# ASSAY_INFO: NCI tumour cell line growth inhibition, 48 h

| MOLECULE | TARGET_OR_TEST_SYSTEM | TGI |
| --- | --- | --- |
| COc1ccc2c(c1)c1c3n2CCNN=C3CCC1 | HOP-62 NSCLC | > 100 µM |
| Cn1nc(-c2ccccc2)c(C(=O)/C=C/c2ccc(Cl)cc2)c(N2CCCC2)c1=O | HOP-62 NSCLC | 6.93 µM |
| CCCCCCCCCCSC(=N)N | HOP-62 NSCLC | 10.3 µM |
| Cc1ccc(/C=N/NS(=O)(=O)c2ccccc2)c(C)c1 | HOP-62 NSCLC | > 100 µM |
| COc1ccc(C(=O)c2cc3c(N)c(C(=O)Nc4cccc(OC)c4)sc3nc2C)cc1 | HOP-62 NSCLC | > 100 µM |
| O=c1cc(N2CCCC2)[nH]c(=O)n1-c1ccc(Cl)cc1 | HOP-62 NSCLC | > 100 µM |
| C=CC[C@H](N=C(SC)SC)C(=O)N1C(=O)N(C)[C@@H](C)[C@H]1c1ccccc1 | HOP-62 NSCLC | > 100 µM |
| O=C1C=Cc2ncccc2C1=O | HOP-62 NSCLC | > 82.9 µM |
| CSCCCNC(=O)[C@H](CSC)NC(=O)c1csc(CCNC(=O)[C@@H](NSc2ccccc2[N+](=O)[O-])C(C)O)n1 (stereo partly drawn) | HOP-62 NSCLC | > 100 µM |
| Cn1cc(NC(=O)Nc2cc(C(=O)Nc3cc(C(=O)Nc4cc(S(=O)(=O)O)c5cc(S(=O)(=O)O)cc(S(=O)(=O)O)c5c4)n(C)c3)n(C)c2)cc1C(=O)Nc1cc(C(=O)Nc2cc(S(=O)(=O)O)c3cc(S(=O)(=O)O)cc(S(=O)(=O)O)c3c2)n(C)c1 | HOP-62 NSCLC | > 100 µM |
| CCCCCCCCCCCCCCCCOCC(O)CO (stereo not drawn) | HOP-62 NSCLC | 43 µM |
| O=C(N/N=C\c1ccc([N+](=O)[O-])s1)c1ccncc1 | HOP-62 NSCLC | 35.3 µM |
| COc1ccc(NC(=O)C2C(=O)N(c3ccc(OC)cc3)C(=O)/C2=N\NC(N)=O)cc1 (stereo not drawn) | HOP-62 NSCLC | 32.9 µM |
| CCOc1cc2c(cc1O)C(N)C[C@@H]1[C@@H]2CC[C@]2(C)[C@@H](O)CC[C@@H]12 (stereo partly drawn) | HOP-62 NSCLC | > 100 µM |
| COc1cc2c(cc1OCCCOc1ccc(-c3nc4ccc(N5CCN(C)CC5)cc4[nH]3)cc1)N=C[C@@H]1CCCN1C2=O | HOP-62 NSCLC | < 0.01 µM |
| CC(C)(C)[Si](C)(C)OC[C@H](/C=C\CCCC(=O)O)NC1(c2ccccc2)c2ccccc2-c2ccccc21 | HOP-62 NSCLC | 42.3 µM |
| CCOC(=O)c1cc(Br)c(-c2cc(C)co2)[nH]1 | HOP-62 NSCLC | > 100 µM |
| C=C1C(=O)OC2C3OC(C)(CCC(O)C3COC(C)=O)CC(OC(=O)/C(=C/C)COC(C)=O)C12 (stereo not drawn) | HOP-62 NSCLC | 10.1 µM |

###

# System: SK-MEL-28 melanoma
# ASSAY_INFO: NCI tumour cell line growth inhibition, 48 h
Below, each entry is listed alongside its reported TGI.

| COMPOUND | TARGET_OR_TEST_SYSTEM | TGI |
| --- | --- | --- |
| COc1cccc(NC2=C(Cl)C(=O)N(Cc3ccc(Cl)cc3)C2=O)c1 | SK-MEL-28 melanoma | 36.3 µM |
| O=CCCCC(Sc1ccccc1)Sc1ccccc1 | SK-MEL-28 melanoma | 32 µM |
| Cc1c(O)c(=O)ccn1CCc1ccc(O)cc1 | SK-MEL-28 melanoma | > 100 µM |
| CC1OC(=O)C(C(C)C)NC(=O)C(C(C)C)OC(=O)C(C(C)C)NC(=O)C(C)OC(=O)C(C(C)C)NC(=O)C(C(C)C)OC(=O)C(C(C)C)NC(=O)C(C)OC(=O)C(C(C)C)NC(=O)C(C(C)C)OC(=O)C(C(C)C)NC1=O (stereo unspecified) | SK-MEL-28 melanoma | 5.63 µM |
| O=C1C=Cc2ncccc2C1=O | SK-MEL-28 melanoma | 48.1 µM |
| CC(N1CCOCC1)C(O)(c1ccccc1)c1ccccn1 (stereo unspecified) | SK-MEL-28 melanoma | > 100 µM |
| CCc1cc(Cc2ccc(C)c(NC(=O)C(=O)C3C(=O)NC(=O)NC3=O)c2CC)cc(C)c1NC(=O)C(=O)C1C(=O)NC(=O)NC1=O | SK-MEL-28 melanoma | > 100 µM |
| CCCN1CCC=C(c2ccc(Nc3nc(Nc4ccccc4C(N)=O)c4cc[nH]c4n3)c(C)c2)C1 | SK-MEL-28 melanoma | > 25 µM |
| FC(F)(F)c1ccc2nc(Sc3ccc4ccccc4c3)cnc2c1 | SK-MEL-28 melanoma | > 100 µM |
| C/C(=N\NC(N)=S)c1ccc(C2CCCCC2)cc1 | SK-MEL-28 melanoma | 33.7 µM |
| COC(=O)C(=O)C(C(=O)C(=O)Nc1cc(Cl)c(Cl)cc1Cl)c1nc2ccc([N+](=O)[O-])cc2[nH]c1=O (stereo unspecified) | SK-MEL-28 melanoma | > 100 µM |
| O=C1/C(=C\c2ccccc2)C2OCC=C3CN4CCC56c7ccccc7N1C5C2C3CC46 (stereo unspecified) | SK-MEL-28 melanoma | 5.44 µM |
| Cc1ccccc1NC(=O)Cc1csc(N=Nc2c(O)[nH]c3ccccc23)n1 | SK-MEL-28 melanoma | > 1 µM |
| Nc1cc2c3c(cccc3c1)C(=O)N(c1ccc(OCCN3CCCC3)cc1)C2=O | SK-MEL-28 melanoma | 47 µM |
| CCOC(=O)CCC(NC(=O)c1ccc(Nc2nc3ccccc3nc2C(=O)OCC)cc1)C(=O)OCC (stereo unspecified) | SK-MEL-28 melanoma | > 100 µM |
| COC(=O)C(NC(=O)OC(C)(C)C)P(=O)(OC)OC (stereo unspecified) | SK-MEL-28 melanoma | > 100 µM |
| CN=C(N)N/N=C(\C)c1ccc2c(c1)Cc1ccccc1-2 | SK-MEL-28 melanoma | 4.63 µM |
| C(#Cc1ccccc1)SC1=C(c2ccccc2)S/C(=C(\SC#Cc2ccccc2)c2ccccc2)S1 | SK-MEL-28 melanoma | > 100 µM |
| Cc1ccc(S(=O)(=O)Nn2c(O)c(C#N)c(-c3ccc([N+](=O)[O-])cc3)c(C#N)c2=O)cc1 | SK-MEL-28 melanoma | > 100 µM |
| Cc1cc2nc3c4ccc(Br)cc4n(CCN(C)C)c3nc2cc1C | SK-MEL-28 melanoma | 3.12 µM |
| CCCCCCCCCCCCCCCCCC(=O)NCC(COP(=O)(O)O)OCC (stereo unspecified) | SK-MEL-28 melanoma | > 100 µM |
